- Test system: DU-4475
- MEASUREMENT PROTOCOL: normalised viability (% of control), CellTiter-Blue; higher = more viable cells (about 100 = DMSO control)
- TEST CONTEXT: 10 nM; incubation time: 72 h
TEST READOUT: normalised viability (%)
The reply should be a number in %, with the unit left off.

Nc1ncn([C@@H]2O[C@H](CO)[C@@H](O)[C@H]2O)c(=O)n1
118
Cc1sc2c(c1C)C(c1ccc(Cl)cc1)=N[C@@H](CC(=O)OC(C)(C)C)c1nnc(C)n1-2 [(+)JQ1]
88.3

Turning now to a further record.
normalised viability measured on O=C1CN2Cc3c(ccc(Cl)c3Cl)N=C2N1 [Anagrelide] = 98.6

* * *

Listed here: items and their measured EC50, CellTiter-Blue viability.
- Tested on: HCC1937
- TEST CONTEXT: 72 h
The reply should be a number in µM, with the unit left off.

# annotated cases, reported EC50, CellTiter-Blue viability shown
COc1cc(F)c(F)c(Nc2ccc(I)cc2F)c1NS(=O)(=O)C1(C[C@H](O)CO)CC1
1.31
C[C@]1(O)C[C@@H](c2nc(-c3ccc4ccc(-c5ccccc5)nc4c3)c3c(N)nccn32)C1
9.83
COc1cc2c(cc1O)CC[C@@H]1[C@@H]2CC[C@]2(C)[C@@H](O)CC[C@@H]12
0.82

Turning now to a further record.
EC50, CellTiter-Blue viability measured on "Cn1cnc2c(F)c(Nc3ccc(Br)cc3Cl)c(C(=O)NOCCO)cc21" = 1.07

* * *

- Tested on: CAL-120
- MEASUREMENT PROTOCOL: normalised response (% of control), CellTox Green; higher = less cell death (100 = DMSO, 0 = benzethonium chloride kill control)
- TEST CONTEXT: incubation time: 72 h
Listed here: items and their measured normalised response.
The reply should be a number in %, with the unit left off.

CC1=C2C[C@H]3[C@@H](CC=C4C[C@@H](O)CC[C@@]43C)[C@@H]2CC[C@]12O[C@@H]1C[C@H](C)CN[C@H]1[C@H]2C [Cyclopamine] (10000 nM)
97.8

normalised response measured on COc1cc2c(cc1O)CC[C@@H]1[C@@H]2CC[C@]2(C)[C@@H](O)CC[C@@H]12 [2-methoxyestradiol] (10000 nM) = 78.8

normalised response measured on Nc1nc2[nH]cnc2c(=S)[nH]1 [Thioguanine] (1000 nM) = 103

normalised response measured on Cn1cnc2c(F)c(Nc3ccc(Br)cc3Cl)c(C(=O)NOCCO)cc21 [Selumetinib] (100 nM) = 95.8

normalised response measured on COc1cc(F)c(F)c(Nc2ccc(I)cc2F)c1NS(=O)(=O)C1(C[C@H](O)CO)CC1 [Refametinib] (10000 nM) = 92

normalised response measured on Cn1cc(C2=Nc3cc(NC(=O)C(N)C4CCCCC4)cc4c3C2=CNNC4=O)cn1 (configuration not stated) (100 nM) = 92

normalised response measured on Nc1ncn([C@@H]2O[C@H](CO)[C@@H](O)[C@H]2O)c(=O)n1 [Azacitidine] (10000 nM) = 96.5

* * *

Listed here: items and their measured drug sensitivity score.
- Tested on: HCC1937
- MEASUREMENT PROTOCOL: drug sensitivity score (DSS), CellTox Green (DSS (AUC-based score)); higher = stronger drug effect (viability inhibition or cytotoxicity); extreme values may be limits of the assay
- TEST CONTEXT: incubation time: 72 h

# annotated cases, reported drug sensitivity score shown
CC1(C)CNc2cc(NC(=O)c3cccnc3NCc3ccncc3)ccc21 [Motesanib]
0
Oc1ncnc2[nH]ncc12 [Allopurinol]
0
C[C@]12CC[C@@H]3c4ccc(OC(=O)N(CCCl)CCCl)cc4CC[C@H]3[C@@H]1CC[C@@H]2O [Estramustine]
0
Cc1ccc([N+](=O)[O-])cc1S(=O)(=O)N(C)/N=C/c1cnc2ccc(Br)cn12 [PIK-75]
2.32

drug sensitivity score measured on COc1cc(F)c(F)c(Nc2ccc(I)cc2F)c1NS(=O)(=O)C1(C[C@H](O)CO)CC1 [Refametinib] = 0
